# assay comment: Biodistribution in Jurkat tumor-bearing CB-17 SCID mice
# Format: in vivo
# condition label: female, CB-17 SCID, mouse, in vivo, iv, total radioactivity, % iD/g Liver
Non-standard residues stand in square brackets, D forms with d. Residues, ends and D or L forms follow the SMILES beside them. Groups on a side chain read outwards from the residue. *: point of attachment. DOTA = O=C(O)CN1CCN(CC(=O)O)CCN(CC(=O)*)CCN(CC(=O)O)CC1; dTyr(3-I) = N[C@H](Cc1ccc(O)c(I)c1)C(=O)O; 2Nal = N[C@@H](Cc1ccc2ccccc2c1)C(=O)O; dNMeOrn = CN[C@H](CCCN)C(=O)O; HYNIC = NNc1ccc(C(=O)*)cn1; 4Amb = NCc1ccc(C(=O)O)cc1; 4Abz = Nc1ccc(C(=O)O)cc1; dDap = NC[C@@H](N)C(=O)O
value kind: tissue uptake at 1 h

C[C@@H](NC(=O)[C@@H](CCCNC(=N)N)NC(=O)[C@@H](CN)NC(=O)c1ccc(NN)nc1)C(=O)Nc1ccc(C(=O)NCCC[C@@H]2C(=O)N[C@@H](CCCNC(=N)N)C(=O)N[C@@H](Cc3ccc4ccccc4c3)C(=O)NCC(=O)N[C@H](Cc3ccc(O)cc3)C(=O)N2C)cc1 [Tc-CXCR4-13] (cyclo([dY][dNMeOrn]([4Abz-dA-dR-dDap-HYNIC])R[2Nal]G)) = 2.62 %ID/g
C[C@@H](NC(=O)[C@@H](CCCNC(=N)N)NC(=O)[C@@H](CN)NC(=O)CN1CCN(CC(=O)O)CCN(CC(=O)O)CCN(CC(=O)O)CC1)C(=O)NCc1ccc(C(=O)NCCC[C@@H]2C(=O)N[C@@H](CCCNC(=N)N)C(=O)N[C@@H](Cc3ccc4ccccc4c3)C(=O)NCC(=O)N[C@H](Cc3ccc(O)c(I)c3)C(=O)N2C)cc1 [CXCR4-DOTA-2 [Lu]] (cyclo([dTyr(3-I)][dNMeOrn]([4Amb-dA-dR-dDap-DOTA])R[2Nal]G)) = 17.7 %ID/g
CN1C(=O)[C@@H](Cc2ccc(O)cc2)NC(=O)CNC(=O)[C@H](Cc2ccc3ccccc3c2)NC(=O)[C@H](CCCNC(=N)N)NC(=O)[C@H]1CCCNC(=O)c1ccc(CNC(=O)CN2CCN(CC(=O)O)CCN(CC(=O)O)CCN(CC(=O)O)CC2)cc1 [^68Ga-Pentixafor, metal not drawn, reference compound] (cyclo([dY][dNMeOrn]([4Amb-DOTA])R[2Nal]G)) = 1.59 %ID/g

API: the following record is the query input.
Reported tissue uptake at 1 h, compound C[C@@H](NC(=O)[C@@H](CCCNC(=N)N)NC(=O)[C@@H](CN)NC(=O)CCCCCNC(=O)[C@@H](CNC(=O)CN1CCN(CC(=O)O)CCN(CC(=O)O)CCN(CC(=O)O)CC1)NC(=O)CCCCC[N+]1=C(/C=C/C=C/C=C2/N(C)c3ccc(S(=O)(=O)O)cc3C2(C)C)C(C)(C)c2cc(S(=O)(=O)[O-])ccc21)C(=O)Nc1ccc(C(=O)NCCC[C@@H]2C(=O)N[C@@H](CCCNC(=N)N)C(=O)N[C@@H](Cc3ccc4ccccc4c3)C(=O)NCC(=O)N[C@H](Cc3ccc(O)cc3)C(=O)N2C)cc1 [[^natLu]CXCR4-OI-3, metal not drawn] : ____ 36.3 %ID/g
